experimental-endpoint: melting point

Inquiry: Tell me the measured melting point of COc1ccc(C(=O)N2c3ccccc3C(n3c4ccccc4c4ccccc43)CC2COCc2ccccc2)cc1OC (stereo not given) , please.
Reply text: 203 to 204 °C

Inquiry: // query melting point value for entry CN(C)CC1CN(c2ccccc2)NC1=O (stereo not given)
Reply text: 118 to 119 °C

Inquiry: What does the record list as melting point for COc1ccc(NS(C)(=O)=O)cc1C(=O)O ?
Reply text: 160 to 163 °C

Inquiry: // melting point lookup, key: CCSCCNC(=O)Nc1ccccc1CCc1cc(C(C)(C)C)c(O)c(C(C)(C)C)c1
Reply text: 131 to 132 °C

Inquiry: What does the data say about its melting point? Entry: CN(c1ccccc1)c1nc(N(C)c2ccccc2)c2ccsc2n1
Reply text: 85 to 87 °C

----------
Entries and their melting point values follow.

Inquiry: Give the measured melting point of c1coc(CN2CC3(COc4cc5c(cc43)OCO5)c3ccccc32)c1 (stereo not given) .
Reply text: 110 to 112 °C

Inquiry: Query: melting point; subject: CCC(C)c1c(O)ccc2c1oc1ccc(C#N)cc12 (stereo not given)
Reply text: 206 to 207 °C

Inquiry: melting point lookup needed for Cc1c(-c2ccccc2)n(-c2ccccc2Cl)c(-c2ccccc2)cc1=O , thanks.
Reply text: 228 to 231 °C

----------
experimental-endpoint: melting point

{"molecule": "O=C(O)CCCC(=O)N1C2CCC(C2)C1C(=O)O (centres undefined)", "melting point": "155 to 159 °C"}
{"molecule": "O=C1N(Cc2cccnc2)c2ccccc2C12COc1ccc3nonc3c12 (centres undefined)", "melting point": "230 to 232 °C"}
{"molecule": "Clc1cccc(Cn2cnc3c(-c4ccco4)nc(Cl)nc32)c1", "melting point": "196 to 198 °C"}
{"molecule": "CN(C)CCOc1ccc(CN2C(=O)C3(COc4cc5c(cc43)OCCO5)c3ccccc32)cc1 (centres undefined)", "melting point": "77 to 79 °C"}
{"molecule": "CC(C)(C)C(=O)OCn1cnc2ccc(CBr)cc2c1=O", "melting point": "104 to 114 °C"}

Inquiry: Report melting point for CCC(C)(C)Nc1c(NCc2ccc(F)cc2Cl)c(=O)c1=O please.
Reply text: 201 to 203 °C

Inquiry: melting point lookup needed for CC(C)(C)OC(=O)NCc1cccc(Cn2ccc(OCc3ccc(F)cc3F)c(Br)c2=O)c1 , thanks.
Reply text: 80 to 84 °C

Inquiry: Suppose we examine the molecule CCOC(=O)CNc1nc2cccccc-2c1C#N ; what melting point value has been reported?
Reply text: 186 to 188 °C

Inquiry: Given the entry O[C@@H](CNCCOc1ccc2oc(-c3ccon3)cc2c1)COc1ccccc1C(F)(F)F , report its measured melting point.
Reply text: 90 to 91 °C

Inquiry: Requested field: melting point. Item: COc1ccc(C2CNCc3c2ccc(OC)c3Cl)cc1OC (centres undefined)
Reply text: 130 to 132 °C

Inquiry: Give the measured melting point of CC(C)=CCc1c(O)ccc(CCCc2ccc(O)cc2)c1O .
Reply text: 115 to 116 °C

Inquiry: GET /values?readout=melting point&item= CCC(=O)N(C(=O)CC)c1nc2c(c(-c3ccccc3)cn2C)c(=O)n1C
Reply text: 215 to 217 °C

Inquiry: # melting point lookup, item CCCn1c(=O)c(=O)[nH]c2cc([N+](=O)[O-])c(-n3ccc(=O)cc3)cc21
Reply text: > 300 °C

Inquiry: Need melting point of O=C(c1cc(Cl)ccc1O)c1ccccc1F , thanks.
Reply text: 76 to 80.5 °C

----------
experimental-endpoint: melting point

The examples below pair each entry with its known result.
{"smiles-input": "COc1nc(C)nc(NC(=O)NS(=O)(=O)c2cc(Br)cc3c2OS(=O)(=O)C(C)=C3)n1", "melting point": "196 to 198 °C"}
{"smiles-input": "CN(C)CC(=O)Nc1ccc2c(c1)C(=O)c1cc(NC(=O)CN(C)C)ccc1C2=O", "melting point": "218 °C"}

Inquiry: Recorded melting point of Cc1nnc(-c2ccc3occ(-c4ccc(C(=O)O)cc4)c3c2)o1 , please.
Reply text: > 300 °C

Inquiry: What does the data say about its melting point? Entry: Cc1cc2c(cc1[N+](=O)[O-])OCO2
Reply text: 83 to 84 °C

----------
Catalogue of compounds with associated melting point

These recorded examples may help you get a feel for the data.
{"compound": "Cc1cc(C#N)sc1-c1ccc2c(c1)C(C)(C)OC(=O)N2", "melting point": "195 to 200 °C"}
{"compound": "COc1cc2c(cc1O)CCN(Cc1cccc(OC(C)=O)c1)C2", "melting point": "120 to 122 °C"}
{"compound": "CCOc1nn(-c2ccc(C(F)(F)F)cn2)cc1CCOc1ccccc1CC(=O)O", "melting point": "134 to 135 °C"}
{"compound": "Cc1cc2nc3c4cc([N+](=O)[O-])ccc4n(CCN(C)C)c3nc2cc1C", "melting point": "219 °C"}

Inquiry: Reported melting point, compound CCCc1c(/C=C/c2ccc(C)cc2)nc2ccc(C(=O)O)cn2c1=O : ____
Reply text: 274 to 275 °C

Inquiry: Requested read-out: melting point. Entry: C#Cc1c(C(C)C)nc(-c2ccccc2)n1-c1ccc(F)cc1
Reply text: 148 to 150 °C

Inquiry: State the recorded melting point for this entry: Cc1cccc(CN2CCC(c3cc(-c4ccc(Cl)cc4)[nH]n3)CC2)c1
Reply text: 119 to 120 °C

Inquiry: What does the data say about its melting point? Entry: Cc1ccc2c(c1)C(=O)c1ccccc1S2(=O)=O
Reply text: 179 to 198 °C

Inquiry: melting point lookup needed for Cc1ccc(S(=O)(=O)OCCc2ccccc2Br)cc1 , thanks.
Reply text: 39 to 39.5 °C

Inquiry: Entry CCC(CC(N)=O)c1cccc2nc3n(c12)CCCN3c1ccc(Cl)cc1Cl (stereo not given) : reported melting point = ?
Reply text: 132 to 133 °C

----------
# melting point listing for each entry below

{"compound": "CCCCc1ccc(NC(N)=S)cc1", "melting point": "123 to 125 °C"}
{"compound": "Clc1ccc(C=CC(C=Cc2ccc(Cl)cc2)=NNC2=NCC(c3ccccc3)(c3ccccc3)N2)cc1", "melting point": "227 °C"}
{"compound": "O=c1[nH]c2ccccc2c(=O)n1CCN1CCC(c2c[nH]c3cc(F)ccc23)CC1", "melting point": "301 °C"}
{"compound": "CSc1nc(Cl)ncc1C", "melting point": "73 to 76 °C"}
{"compound": "Nc1cc(-c2nnc(SCc3ccc(Cl)cc3)o2)ccn1", "melting point": "200 to 201 °C"}

Inquiry: State the recorded melting point for this entry: Cc1oc(-c2ccco2)nc1COc1ccc(CCl)cc1Cl
Reply text: 103 to 104 °C

Inquiry: For the compound shown here, CCOC(=O)CCCCCCn1cnc2ccncc21 , give the reported melting point.
Reply text: 64 to 65 °C

Inquiry: Which melting point is reported for this compound? N#Cc1ccc(OCc2ccsc2)cc1OC(C(=O)O)c1ccccc1F (racemic)
Reply text: 159 to 161 °C

Inquiry: melting point lookup needed for CCOC(=O)c1ccc(NC(=O)C=C(c2ccc(Br)cc2)c2ccc(Br)cc2)cc1 , thanks.
Reply text: 207 to 208 °C

Inquiry: Field request: melting point | item: COc1cc2c(cc1OC)C1Cc3cc(OC)c(OC(C)=O)cc3CN1CC2 (stereo not given)
Reply text: 162 to 164 °C

----------
Recorded melting point by entry

Answered examples (8):
{"compound": "COc1ccc([C@@H]2OC(=O)[C@H](C)N2C(=O)OCc2ccccc2)cc1", "test-result": "97 to 99 °C"}
{"compound": "Fc1cc2c(cc1F)C(n1cc[nH]c1=S)CC2 (stereo not given)", "test-result": "183 to 187 °C"}
{"compound": "NS(=O)(=O)c1ccc(NN=C2C(=O)Nc3ccc(S(N)(=O)=O)cc32)cc1", "test-result": "> 250 °C"}
{"compound": "c1ccc(Sc2cc(Sc3ccccc3)c3ccc4c(Sc5ccccc5)cc(Sc5ccccc5)c5ccc2c3c54)cc1", "test-result": "230 °C"}
{"compound": "NC(=O)N(O)Cc1cscc1Br", "test-result": "134 to 136 °C"}
{"compound": "O=C(Nc1ccccc1Oc1ccc(C(=O)O)c(C(=O)O)c1)c1cccc([N+](=O)[O-])c1", "test-result": "184 to 190 °C"}
{"compound": "C=C(C(=O)c1cc(-c2cccs2)ccc1OC)c1ccc(C#N)cc1", "test-result": "86 to 88 °C"}
{"compound": "COc1ccc(S(=O)(=O)N[C@@H](C(=O)OCc2ccccc2)C(C)C)cc1", "test-result": "92 to 94 °C"}

Inquiry: Bench note: what melting point did C=C(C)CSc1nc2c(cc1C#N)C(=O)CCC2 show?
Reply text: 85 to 86 °C

Inquiry: For the compound shown here, CCOC(=O)CC(=O)c1csc(-c2ccccc2)n1 , give the reported melting point.
Reply text: 66 to 68 °C
